Experiment: Toxicity liver stage against HepG2, at 10uM
Type: cell-based
Parameters: test concentration 10 uM, cell line HepG2-A16-CD81EGFP
Conditions: human, HepG2-A16-CD81EGFP cells; read-out: INHIBITION
The molecules listed here are annotated with their cytotoxicity at 10 µM.
I only need the number, in %, no unit after it.

Answered examples (8):
CCCNC(=O)c1nn(CC)cc1NC(=O)c1c(C)nn(C)c1C | -7.95
O=C(CCc1ccccn1)N1CCCC(N2CCNC2=O)C1 (configuration not stated) | 6.99
CN(Cc1ccncc1)C1COC2(CCN(Cc3cccs3)CC2)C1 (configuration not stated) | -0.931
CC(C)c1nccn1C(C)C(=O)NC1Cc2ccccc2C1 (configuration not stated) | -5.03
CC(C)c1n[nH]c(C2CN(C(=O)COCC(F)(F)F)CCO2)n1 (configuration not stated) | -10.3
NC(c1ccccc1)c1ccc(OC(F)F)cc1 (configuration not stated) | 1.79
COCC(=O)N1CCCC(C(=O)N(C)CCn2ccnc2C)C1 (configuration not stated) | 0.707
COc1ccc(NC(=O)Cn2c(=O)nc(N)c3cc(C)sc32)cc1 | 2.31

Given COc1ccc(C(=O)NCCCNc2ncccn2)c(OC)c1 , state its recorded cytotoxicity at 10 µM.
-7.4

Given CCOCCC(=O)Nc1cc(C)cnc1OC , state its recorded cytotoxicity at 10 µM.
18.9

Given CCOCCN1CCN(CCOC)CC1C (configuration not stated) , state its recorded cytotoxicity at 10 µM.
-4.2

Given Cc1nn(C)c2cnn(Cc3ccc(C(=O)NCC4CC4)o3)c12 , state its recorded cytotoxicity at 10 µM.
6.06

###

Test: Toxicity liver stage against HepG2, at 10uM
Assay type: cell-based
Set-up: test concentration 10 uM, cell line HepG2-A16-CD81EGFP
Settings: human, HepG2-A16-CD81EGFP cells; read-out: INHIBITION
MEASURED_PARAMETER: cytotoxicity at 10 µM (%)
I only need the number, in %, no unit after it.

CCCc1cc(=O)[nH]c(-n2nc(-c3cccs3)cc2N)n1 | 11.2
CCCc1n[nH]c(C2CN(C(=O)c3cncnc3C)CCO2)n1 (stereo not drawn) | -12.9

# input for lookup
Given CCc1ccccc1OCCN(C)C(=O)CCN1CCCCO1 , state its recorded cytotoxicity at 10 µM.
-57.1

###

Assay: Toxicity liver stage against HepG2, at 10uM
Type: cell-based
Parameters: test concentration 10 uM, cell line HepG2-A16-CD81EGFP
Conditions: human, HepG2-A16-CD81EGFP cells; read-out: INHIBITION
Criterion: cytotoxicity at 10 µM strictly under -10%. Met: Met. Not met: Not met.

For orientation, consider the following solved cases.
COc1ccccc1CN1CCc2c(nc(-c3ccccn3)[nH]c2=O)C1 | Met
COCCN1CCCN(C(=O)NC(C)Cn2ccnc2)CC1 (stereo not given) | Not met
O=C(c1cnccn1)N1CC(S(=O)(=O)c2ccc(Cl)cc2)C1 | Not met
CC(C)c1cc(N2CCC(N)CC2)n2nccc2n1 | Met
CCCc1nnc2sc(C3CCN(CCOC)CC3)nn12 | Not met

Consider the molecule COCC1CN(C(=O)Nc2cc(C(F)(F)F)ccc2F)CCO1 (stereo not given) . Is its cytotoxicity at 10 µM strictly less than -10%?
Not met

Consider the molecule CC(C#N)CN(C)Cc1cc(Cl)cc2cccnc12 (stereo not given) . Is its cytotoxicity at 10 µM strictly less than -10%?
Met

Consider the molecule CC(C)N(C)C(=O)COc1ccc(-c2noc(C3CCCO3)n2)cc1 (stereo not given) . Is its cytotoxicity at 10 µM strictly less than -10%?
Not met

Consider the molecule Cc1nn(C)cc1Cn1c(=O)c(C)nc2ccccc21 . Is its cytotoxicity at 10 µM strictly less than -10%?
Not met

###

Experiment: Toxicity liver stage against HepG2, at 10uM
Assay type: cell-based
Parameters: test concentration 10 uM, cell line HepG2-A16-CD81EGFP
Conditions: human, HepG2-A16-CD81EGFP cells; read-out: INHIBITION
MEASURED_PARAMETER: cytotoxicity at 10 µM (%)
I only need the number, in %, no unit after it.

Given COc1cnc(N2CCC(Oc3ccccc3OC)(C(=O)O)CC2)nc1 , state its recorded cytotoxicity at 10 µM.
-13.5

Given CC1CN(CCC(=O)NCCc2cccnc2)Cc2ccccc2O1 (stereo not given) , state its recorded cytotoxicity at 10 µM.
-3.34

Given CC(=O)N1CC[C@H]2OCC[C@@H](C(=O)Nc3cccnc3C)[C@@H]2C1 , state its recorded cytotoxicity at 10 µM.
11.3

Given CC(C)C1CN(c2ncc(F)cn2)CCC(=O)N1Cc1ccc(F)cc1 (stereo not given) , state its recorded cytotoxicity at 10 µM.
16.9

Given CC(C)(NC(=O)c1cnc(-c2ccccc2F)s1)C(N)=O , state its recorded cytotoxicity at 10 µM.
6.96

###

Test: Toxicity liver stage against HepG2, at 10uM
Type: cell-based
Design: test concentration 10 uM, cell line HepG2-A16-CD81EGFP
Settings: human, HepG2-A16-CD81EGFP cells; read-out: INHIBITION
The compounds listed here are annotated with their cytotoxicity at 10 µM.
I only need the number, in %, no unit after it.

Given COc1ccc(F)cc1C(C(=O)O)N1CCCN(C2CCCC2)CC1 (stereo not drawn) , state its recorded cytotoxicity at 10 µM.
-8.63

Given COC(=O)N1CCN2C[C@H](CO)[C@@H](c3ccccc3)[C@H]2C1 , state its recorded cytotoxicity at 10 µM.
6.12

Given O=C(NCc1ccc2c(c1)CCCO2)c1ccccc1C1CCNC1 (stereo not drawn) , state its recorded cytotoxicity at 10 µM.
6.58

###

The molecules listed here are annotated with their cytotoxicity at 10 µM.
Test: Toxicity liver stage against HepG2, at 10uM
Format: cell-based
Parameters: test concentration 10 uM, cell line HepG2-A16-CD81EGFP
Conditions: human, HepG2-A16-CD81EGFP cells; read-out: INHIBITION
I only need the number, in %, no unit after it.

Given Cc1ccc(CN2CCN(C(=O)c3ccccc3O)C(C)C2=O)cc1 (stereo not given) , state its recorded cytotoxicity at 10 µM.
6.31

Given COCc1nc(N(C)C)ncc1C(=O)Nc1ccn(C)n1 , state its recorded cytotoxicity at 10 µM.
-0.782

Given O=C(C1CCOCC1)N1CCO[C@@H]2[C@@H](OCc3ccncc3)CC[C@@H]21 , state its recorded cytotoxicity at 10 µM.
8.5

Given COc1ccc(S(=O)(=O)NC(=O)c2c(C)noc2C(C)C)cc1OC , state its recorded cytotoxicity at 10 µM.
-2.23

Given Cc1cnn(CCC(=O)N2CCCC(c3cc(C)[nH]n3)C2)c1 (stereo not given) , state its recorded cytotoxicity at 10 µM.
-23.6

###

Assay: Toxicity liver stage against HepG2, at 10uM
Format: cell-based
Design: test concentration 10 uM, cell line HepG2-A16-CD81EGFP
Conditions: human, HepG2-A16-CD81EGFP cells; read-out: INHIBITION
MEASURED_PARAMETER: cytotoxicity at 10 µM (%)
I only need the number, in %, no unit after it.

Answered examples (2):
Cc1ccc(OC2(C(=O)O)CCN(C(=O)c3ccc(F)cc3)CC2)cn1 | -18.1
Cc1cc(C)cc(C(=O)N2CCCC3(CCCC(=O)N3C)C2)c1 (stereo not drawn) | 5.06

Given CS(=O)(=O)N1CC[C@]2(C[C@H](Oc3ccccn3)CO2)C1 , state its recorded cytotoxicity at 10 µM.
-116

###

Test: Toxicity liver stage against HepG2, at 10uM
Assay type: cell-based
Parameters: test concentration 10 uM, cell line HepG2-A16-CD81EGFP
Settings: human, HepG2-A16-CD81EGFP cells; read-out: INHIBITION
The compounds listed here are annotated with their cytotoxicity at 10 µM.
I only need the number, in %, no unit after it.

Answered examples (4):
Cc1noc(C)c1C(=O)NCc1ccc(N2CCOC(C)C2)nc1 (stereo not given) | -3.46
CC(C)Cn1cc2nc(N)[nH]cc-2c1=O | 5.26
CCOCCN1CCN(CC(O)c2ccc(F)cc2)CC1 (stereo not given) | -8.92
CCN(C(=O)c1ccccc1I)C1CC(=O)NC1=O (stereo not given) | -3.86

# input for lookup
Given CCc1cc(NC(=O)C(c2cccc(F)c2)N2CCOCC2)[nH]n1 (stereo not given) , state its recorded cytotoxicity at 10 µM.
-10.3

###

Test: Toxicity liver stage against HepG2, at 10uM
Type: cell-based
Set-up: test concentration 10 uM, cell line HepG2-A16-CD81EGFP
Details: human, HepG2-A16-CD81EGFP cells; read-out: INHIBITION
MEASURED_PARAMETER: cytotoxicity at 10 µM (%)
I only need the number, in %, no unit after it.

Cc1cc(C)nc(N2Cc3cnn(Cc4ccc(F)cc4)c3C2)n1 | 25.2
CCCNC(=O)c1cc2c(c3ccccc3n2C)n1C(=O)N(C)C | 0.539
CC(C(=O)N1CCCC1)N1CCC(c2nccn2CC2CCC2)CC1 (configuration not stated) | -1.96
CN(C)C(=O)N1C[C@H]2CC[C@@H](C1)N(Cc1nnc(C3CC3)o1)C2 | 0.266
Cc1cnc(NC(=O)c2cccc(CN(C)Cc3ncccc3C)c2)s1 | 14.2

Given Cc1ccnc(Cn2cc(-c3cccc(C(C)N(C)C)c3)nn2)c1 (configuration not stated) , state its recorded cytotoxicity at 10 µM.
1.74

Given COCc1cnc2n1CCN(C(=O)c1ocnc1C)C2C (configuration not stated) , state its recorded cytotoxicity at 10 µM.
-1.91
